Tested on: A549 NSCLC
experimental.protocol: NCI tumour cell line growth inhibition, 48 h
attribute.measured: TGI

These recorded examples may help you get a feel for the data.
INSERT INTO results (compound, attribute_measured, result) VALUES
  ('NNC(=O)N/N=C1\CN(c2ccc(Cl)cc2Cl)C(=O)C(=O)C1c1nc2ccccc2o1 (stereo not drawn)', 'TGI', '> 100 µM'),
  ('CNCc1cccc2c1OCCOCCOCCC(C)S(=O)(=O)c1ccc(cc1)-c1cnc(N)c(n1)C(=O)N2 (stereo not drawn)', 'TGI', '6.83 µM'),
  ('CSc1nc(C)c2c(n1)N(c1ccc(Cl)cc1)CC2', 'TGI', '> 100 µM'),
  ('CC(=O)O[C@H]1C(=O)[C@@]2(C)[C@H]([C@H](OC(=O)c3ccco3)[C@]3(O)C[C@H](OC(=O)[C@H](O)[C@@H](NC(=O)c4ccccc4)c4ccccc4)C(C)=C1C3(C)C)[C@]1(OC(C)=O)CO[C@@H]1C[C@@H]2O', 'TGI', '> 25 µM'),
  ('CCCCCCCCCCCCOC1C(C(CC(=O)N2CCN(Cc3ccc4c(c3)OCO4)CC2)NS(=O)(=O)c2cc(Cl)cc(Cl)c2)OC2OC(C)(C)OC21 (stereo not drawn)', 'TGI', '> 100 µM'),
  ('N#CC(NC(=O)CCl)=C(Cl)Cl', 'TGI', '13.8 µM');

Exercise: State the recorded TGI for this entry: `C=CCNC1=C2C[C@@H](C)C[C@@H](OC)[C@H](OC(=O)CCN(C)C)[C@H](C)/C=C(\C)[C@@H](OC(N)=O)[C@H](OC)/C=C\C=C(/C)C(=O)NC(=CC1=O)C2=O`
Key: 17.4 µM

Exercise: State the recorded TGI for this entry: `c1ccc(Nc2nnc(CCCCCCCCc3nnc(Nc4ccccc4)o3)o2)cc1`
Key: > 100 µM

Exercise: State the recorded TGI for this entry: COC(=O)C(NC(=O)c1ccccc1)C(c1c(O)cc(O)cc1O)P(=O)(OC)OC (stereo not drawn)
Key: > 100 µM

----------
System: IGROV1 ovarian
experimental.protocol: NCI tumour cell line growth inhibition, 48 h
Reported values of TGI for individual entries

These recorded examples may help you get a feel for the data.
INSERT INTO assay_data (compound, attribute_measured, result) VALUES
  ('CSc1nc(C)c2c(n1)N(c1ccc(Cl)cc1)CC2', 'TGI', '> 100 µM'),
  ('COc1ccc(CC[N+]2(C)COc3cc4oc(=O)cc(C)c4cc3C2)cc1OC (stereo unspecified)', 'TGI', '> 100 µM'),
  ('COc1cc(/C=C2/Oc3c(OC)cccc3C2=O)ccc1O', 'TGI', '> 100 µM'),
  ('COC(=O)[C@]1(C)CCC[C@]2(C)[C@@H]1CCC13C[C@@H](C=CO1)[C@@H](C)CC32O (stereo partly specified)', 'TGI', '> 100 µM'),
  ('O=C(C(=O)c1cc(Br)ccc1O)c1cc(Br)ccc1O', 'TGI', '8.58 µM');

In the following, a different compound is considered.
Exercise: State the recorded TGI for this entry: `COc1ccc2c(c1)[n+](=O)c(C(C)=O)c(C)n2[O-]`
Key: > 100 µM

----------
Test system: 786-0 renal
experimental.protocol: NCI tumour cell line growth inhibition, 48 h
attribute.measured: TGI

These recorded examples may help you get a feel for the data.
INSERT INTO results (compound, result) VALUES
  ('Cc1cc(C)n2c(nc3ccccc32)c1C#N', '> 100 µM'),
  ('O=c1[nH]c2ccc([N+](=O)[O-])c(Cl)c2c2ccccc12', '48.3 µM'),
  ('O=C(CC1=Nc2nnc(-c3nnc4n3C(=O)C(CC(=O)C3CC3)=N4)n2C1=O)C1CC1', '> 100 µM'),
  ('NC(=O)c1ncn(C2OC(CO)C(O)C2O)c1N (stereo unspecified)', '> 100 µM'),
  ('COc1ccc(C(=O)O/N=C2/CCCCC2CN(C)C)cc1 (stereo unspecified)', '> 100 µM');

Exercise: API: value(readout=TGI, system=786-0 renal) for record `COc1ccc(-c2cc(-c3ccco3)c(C#N)c(=O)[nH]2)cc1`
Key: > 100 µM

----------
Tested on: T-47D breast
experimental.protocol: NCI tumour cell line growth inhibition, 48 h
attribute.measured: TGI

These recorded examples may help you get a feel for the data.
INSERT INTO assay_data (molecule, study_target, result) VALUES
  ('C=C1CC/C=C(\C)CC[C@H](C(=C)C)[C@@H](O)/C=C(/CO)CCC1O (some centres not stated)', 'T-47D breast', '> 100 µM'),
  ('C=CCOC(=O)N1c2ccc(O)cc2[C@@]23O[C@@]24[C@@H]1C#C/C=C\C#C[C@]3(O)C(=O)C[C@@H]4C', 'T-47D breast', '> 100 µM'),
  ('NC(=O)c1ncn(C2OC(CO)C(O)C2O)c1N (configuration not stated)', 'T-47D breast', '> 100 µM'),
  ('S=c1[nH]n2c(COc3cc(Cl)c(OCc4nnc5sc(=S)[nH]n45)cc3Cl)nnc2s1', 'T-47D breast', '> 100 µM'),
  ('C#CCOC(=O)C(=[N+]=[N-])C(=O)CC(C)C', 'T-47D breast', '> 10 µM');

Exercise: State the recorded TGI for this entry: `c1ccc(-c2c(-c3[nH]c4ccccc4c3-c3ccccc3)[nH]c3ccccc23)cc1`
Key: 8.44 µM

Exercise: State the recorded TGI for this entry: `COc1cccc(N=NN2CCCC2)c1`
Key: > 100 µM

Exercise: State the recorded TGI for this entry: CCCCCCCCCCCCC1N=C(N)NC2(CCCO2)C1C(=O)OC (configuration not stated)
Key: 27.7 µM

Exercise: State the recorded TGI for this entry: `CC(=O)C(C(C)=O)[C@H]1OC(C)(C)O[C@H]1[C@H]1COC(C)(C)O1`
Key: > 100 µM

Exercise: State the recorded TGI for this entry: `CCCCCCCc1ccc(-c2nnc(N=Nc3ccc(OCCCCC)cc3)s2)s1`
Key: > 100 µM

Exercise: State the recorded TGI for this entry: `Cc1cc(C)n2c(nc3ccccc32)c1C#N`
Key: > 100 µM

----------
Test system: IGROV1 ovarian
experimental.protocol: NCI tumour cell line growth inhibition, 48 h
Reported values of log10 TGI for individual entries
Kindly note that the scale is log10 and the underlying TGI is in µM.

Exercise: State the recorded log10 TGI for this entry: CC1(Cl)CC(C)(/C=C/Cl)C(Cl)CC1Cl (centres undefined)
Key: 1.48

Exercise: State the recorded log10 TGI for this entry: `CC(=O)[O-].[Mn+3].[O-]c1ccc(Cl)cc1C=NCCN=Cc1cc(Cl)ccc1[O-]`
Key: 1.74

Exercise: State the recorded log10 TGI for this entry: `C=CCNC1=C2C[C@@H](C)C[C@@H](OC)[C@H](OC(=O)CCN(C)C)[C@H](C)/C=C(\C)[C@@H](OC(N)=O)[C@H](OC)/C=C\C=C(/C)C(=O)NC(=CC1=O)C2=O`
Key: 1.16

Exercise: State the recorded log10 TGI for this entry: CCCCCCCCCCCCCCCC(=O)OCC1OC(n2cc(F)c(=O)[nH]c2=O)C(NC(=O)N(CCCl)N=O)C(O)C1O (centres undefined)
Key: 1.26

Exercise: State the recorded log10 TGI for this entry: O=C1CCS/C(=N/S(=O)(=O)c2ccc(N3N=C4c5ccccc5CC4C3c3cccs3)cc2)N1Cc1ccccc1 (centres undefined)
Key: 1.72

Exercise: State the recorded log10 TGI for this entry: `COc1ccc(-c2cc(-c3ccccc3)nc(NCCNc3ccnc4cc(Cl)ccc34)n2)cc1`
Key: 0.50

----------
System: OVCAR-5 ovarian
experimental.protocol: NCI tumour cell line growth inhibition, 48 h
Reported values of GI50 for individual entries

These recorded examples may help you get a feel for the data.
INSERT INTO measurements (molecule, study_target, result) VALUES
  ('COC(=O)[C@H](Cc1cn(C)cn1)NC(=O)[C@@H](NC(=O)Nc1cc(C(F)(F)F)cc(C(F)(F)F)c1)C(C)C', 'OVCAR-5 ovarian', '> 10 µM'),
  ('NC(N)=N/N=C(/c1ccccc1)c1ccccc1F', 'OVCAR-5 ovarian', '7.49 µM'),
  ('NC(N)=N/N=C/c1c(-c2ccncc2)nc2sc(Cl)cn12', 'OVCAR-5 ovarian', '7.1 µM'),
  ('COc1ccc(-c2cc(-c3ccccc3)nc(NCCNc3ccnc4cc(Cl)ccc34)n2)cc1', 'OVCAR-5 ovarian', '1.76 µM'),
  ('COc1ccc(OCC(O)CN2CCN(c3ccc(Cl)cc3)CC2)cc1 (centres undefined)', 'OVCAR-5 ovarian', '> 100 µM');

Exercise: State the recorded GI50 for this entry: CCCCCCCCCCCCOC1C(C(CC(=O)N2CCN(Cc3ccc4c(c3)OCO4)CC2)NS(=O)(=O)c2cc(Cl)cc(Cl)c2)OC2OC(C)(C)OC21 (centres undefined)
Key: 6.49 µM

Exercise: State the recorded GI50 for this entry: `COc1ccc(/C=C/C(C)=N/OCC(=O)Nc2ccc(Cl)cc2)cc1`
Key: 5.45 µM

Exercise: State the recorded GI50 for this entry: `[Cl-].[Gd+3].[O-]/N=C(\c1ccccc1)c1ccccn1.[O-]/N=C(\c1ccccc1)c1ccccn1.[O-]/N=C(\c1ccccc1)c1ccccn1`
Key: 67.7 µM

Exercise: State the recorded GI50 for this entry: `N#CC(NC(=O)CCl)=C(Cl)Cl`
Key: 1.96 µM
